- Tested on: HCC1143
- Test protocol: normalised viability (% of control), CellTiter-Blue; higher = more viable cells (about 100 = DMSO control)
- Run parameters: 100 nM; incubation time: 72 h
Reported metric: normalised viability (%)
API: value field is a number in %; no unit string.

| Substance smiles | Target | Endpoint value |
| --- | --- | --- |
| CC(C)C[C@H](NC(=O)[C@@H](COC(C)(C)C)NC(=O)[C@H](Cc1ccc(O)cc1)NC(=O)[C@H](CO)NC(=O)[C@H](Cc1c[nH]c2ccccc12)NC(=O)[C@H](Cc1cnc[nH]1)NC(=O)[C@@H]1CCC(=O)N1)C(=O)N[C@@H](CCCNC(=N)N)C(=O)N1CCC[C@H]1C(=O)NNC(N)=O | HCC1143 | 87.3 |
| CO[C@@]12[C@H](COC(N)=O)C3=C(C(=O)C(C)=C(N)C3=O)N1C[C@@H]1N[C@@H]12 | HCC1143 | 83.7 |

// moving on: another record for normalised viability
Reported normalised viability, molecule C=CCn1c(=O)c2cnc(Nc3ccc(N4CCN(C)CC4)cc3)nc2n1-c1cccc(C(C)(C)O)n1 : ____
94.8

----------
- System: MFM-223
- Test protocol: normalised viability (% of control), CellTiter-Blue; higher = more viable cells (100 = DMSO, 0 = benzethonium chloride kill control)
- Run parameters: incubation time: 72 h
Reported metric: normalised viability
Write your answer as a measured quantity: the number, then the unit.

Solved cases (3 shown):
| Compound | normalised viability |
| --- | --- |
| CC(O)(CS(=O)(=O)c1ccc(F)cc1)C(=O)Nc1ccc(C#N)c(C(F)(F)F)c1 (centres undefined) [Bicalutamide] (1 nM) | 94.8% |
| CCNC(=O)CCC/C=C\C[C@@H]1[C@@H](/C=C/[C@@H](O)CCc2ccccc2)[C@H](O)C[C@@H]1O [Bimatoprost] (0.55 nM) | 94.9% |
| CC(=O)[C@]1(O)Cc2c(O)c3c(c(O)c2[C@@H](O[C@H]2C[C@H](N)[C@H](O)[C@H](C)O2)C1)C(=O)c1ccccc1C3=O [Idarubicin] (0.1 nM) | 97% |

Reported normalised viability, compound CC[C@H](CO)Nc1nc(NCc2ccccc2)c2ncn(C(C)C)c2n1 [Roscovitine] (1 nM) : ____
96.5%

----------
- Tested on: CAL-85-1
- Test protocol: normalised viability (% of control), CellTiter-Blue; higher = more viable cells (about 100 = DMSO control)
- Run parameters: incubation time: 72 h
Flag rule - normalised viability less than 70% flags 1; the remaining entries get 0.

Would you please look over these solved cases?
| Compound | Target | Assigned class |
| --- | --- | --- |
| Nc1ccn([C@@H]2O[C@H](CO)[C@@H](O)C2(F)F)c(=O)n1 [Gemcitabine] (1000 nM) | CAL-85-1 | 1 |
| CC(C)C[C@H](NC(=O)[C@@H](COC(C)(C)C)NC(=O)[C@H](Cc1ccc(O)cc1)NC(=O)[C@H](CO)NC(=O)[C@H](Cc1c[nH]c2ccccc12)NC(=O)[C@H](Cc1cnc[nH]1)NC(=O)[C@@H]1CCC(=O)N1)C(=O)N[C@@H](CCCNC(=N)N)C(=O)N1CCC[C@H]1C(=O)NNC(N)=O [Goserelin] (10000 nM) | CAL-85-1 | 0 |
| COc1c2occc2cc2ccc(=O)oc12 [Methoxsalen] (10000 nM) | CAL-85-1 | 1 |

Okay, next one:
Dear reviewer, please state whether COc1cc(Nc2c(C#N)cnc3cc(OCCCN4CCN(C)CC4)c(OC)cc23)c(Cl)cc1Cl [Bosutinib] (10000 nM) has normalised viability strictly beneath 70%.
1

----------
- Test system: CAL-148
- Test protocol: normalised viability (% of control), CellTiter-Blue; higher = more viable cells (about 100 = DMSO control)
- Run parameters: 10 nM; incubation time: 72 h
Each entry below carries its recorded normalised viability.
API: value field is a number in %; no unit string.

Solved cases (2 shown):
| Substance smiles | Reported metric | Endpoint value |
| --- | --- | --- |
| CC[C@H](CO)Nc1nc(NCc2ccccc2)c2ncn(C(C)C)c2n1 | normalised viability | 88.8 |
| C=CCN(/C=C1/C(=O)O[C@H](COC)[C@@]2(C)C1=C(O)C(=O)C1=C2[C@H](OC(C)=O)C[C@]2(C)C(=O)CC[C@@H]12)CC=C | normalised viability | 100 |

Reported normalised viability, compound COc1cc(Nc2c(C#N)cnc3cc(OCCCN4CCN(C)CC4)c(OC)cc23)c(Cl)cc1Cl : ____
84.6

Reported normalised viability, compound CO[C@@]12[C@H](COC(N)=O)C3=C(C(=O)C(C)=C(N)C3=O)N1C[C@@H]1N[C@@H]12 : ____
101

Reported normalised viability, compound COc1c2occc2cc2ccc(=O)oc12 : ____
99.5

Reported normalised viability, compound COc1ccc(S(=O)(=O)Nc2cccnc2Nc2ccc(O)cc2)cc1 : ____
90.4

----------
- Test system: CAL-120
- Test protocol: drug sensitivity score (DSS), CellTiter-Glo (DSS (AUC-based score)); higher = stronger drug effect (viability inhibition or cytotoxicity); extreme values may be limits of the assay
- Run parameters: incubation time: 72 h
Each entry below carries its recorded drug sensitivity score.
API note: the answer field is a bare number with no unit suffix.

Solved cases (2 shown):
| Substance smiles | Target | drug sensitivity score |
| --- | --- | --- |
| CC1(COc2ccc3c(c2)ncn3-c2ccc3cccc(N4CCC(N)CC4)c3n2)COC1 | CAL-120 | 0 |
| Cn1cc(C2=C(c3cn(C4CCN(Cc5ccccn5)CC4)c4ccccc34)C(=O)NC2=O)c2ccccc21 | CAL-120 | 0 |

// moving on: another record for drug sensitivity score
Reported drug sensitivity score, compound CC[C@H](CO)Nc1nc(NCc2ccccc2)c2ncn(C(C)C)c2n1 : ____
0

----------
- Tested on: MFM-223
- Test protocol: normalised response (% of control), CellTox Green; higher = less cell death (100 = DMSO, 0 = benzethonium chloride kill control)
- Run parameters: incubation time: 72 h
Reported metric: normalised response
Write your answer as a measured quantity: the number, then the unit.

| Compound | Target | normalised response |
| --- | --- | --- |
| CC[C@H](CO)Nc1nc(NCc2ccccc2)c2ncn(C(C)C)c2n1 [Seliciclib] (10000 nM) | MFM-223 | 68.6% |
| O=C(CCCCCCC(=O)Nc1ccccc1)NO [Vorinostat] (100 nM) | MFM-223 | 99.6% |
| CN[C@@H](C)C(=O)N[C@H]1CN(C(=O)CC(C)C)CC[C@H]2CC[C@@H](C(=O)NC(c3ccccc3)c3ccccc3)N2C1=O [AT-406] (100 nM) | MFM-223 | 104% |
| CCNC(=O)c1noc(-c2cc(C(C)C)c(O)cc2O)c1-c1ccc(CN2CCOCC2)cc1 [NVP-AUY922] (10 nM) | MFM-223 | 106% |
| CNC(=O)c1ccccc1Sc1ccc2c(/C=C/c3ccccn3)n[nH]c2c1 [Axitinib] (10000 nM) | MFM-223 | 97.7% |

Give normalised response (MFM-223) of the following compound: CC1(COc2ccc3c(c2)ncn3-c2ccc3cccc(N4CCC(N)CC4)c3n2)COC1 [Crenolanib] (1000 nM)
100%

Give normalised response (MFM-223) of the following compound: COc1cc(Nc2c(C#N)cnc3cc(OCCCN4CCN(C)CC4)c(OC)cc23)c(Cl)cc1Cl [Bosutinib] (100 nM)
101%

Give normalised response (MFM-223) of the following compound: O=C(CCCCCCC(=O)Nc1ccccc1)NO [Vorinostat] (10000 nM)
80.3%

----------
- System: CAL-120
- Test protocol: normalised response (% of control), CellTiter-Glo; higher = more viable cells (100 = DMSO, 0 = benzethonium chloride kill control)
- Run parameters: incubation time: 72 h
Reported metric: normalised response (%)
API: value field is a number in %; no unit string.

Solved cases (5 shown):
| Compound | Uom | normalised response |
| --- | --- | --- |
| C=CCn1c(=O)c2cnc(Nc3ccc(N4CCN(C)CC4)cc3)nc2n1-c1cccc(C(C)(C)O)n1 [MK1775] (100 nM) | % | 79 |
| CCn1c(C(=O)N(C2CC2)C2CC2)cc2c3c(ncn3C)c(Nc3cc(C)n(C)n3)nc21 (100 nM) | % | 95.7 |
| CC(=O)[C@]1(O)Cc2c(O)c3c(c(O)c2[C@@H](O[C@H]2C[C@H](N)[C@H](O)[C@H](C)O2)C1)C(=O)c1ccccc1C3=O [Idarubicin] (10 nM) | % | 106 |
| COc1cc(Nc2c(C#N)cnc3cc(OCCCN4CCN(C)CC4)c(OC)cc23)c(Cl)cc1Cl [Bosutinib] (100 nM) | % | 100 |
| CC1(C)CCC(c2ccc(Cl)cc2)=C(CN2CCN(c3ccc(C(=O)NS(=O)(=O)c4ccc(N[C@H](CCN5CCOCC5)CSc5ccccc5)c(S(=O)(=O)C(F)(F)F)c4)cc3)CC2)C1 [Navitoclax] (100 nM) | % | 87.2 |

// moving on: another record for normalised response
Reported normalised response, compound CCNC(=O)c1noc(-c2cc(C(C)C)c(O)cc2O)c1-c1ccc(CN2CCOCC2)cc1 [NVP-AUY922] (10 nM) : ____
103
